- Test details: gradient 5% acetonitrile 3 min, to 50% in 2 min, to 85% in 15 min, held 3 min, 100 µL/min
- Protocol conditions: column: Zorbax Extend-C18 2.1 x 50 mm; eluents: water / acetonitrile, 0.1% formic acid
Observable: RP-LC retention time (s)

[P] O=C(Cn1nc2c3sc(N4CCCCC4)nc3ncn2c1=O)Nc1ccc(F)c(F)c1
[Q] O=C(NCc1ccco1)C1CCN(c2cncnc2N2CCOCC2)CC1
Which entry shows the lesser value of RP-LC retention time here, P or Q ? Write the label of whichever entry you select.
Q

----------
- Test details: gradient 5% acetonitrile 3 min, to 50% in 2 min, to 85% in 15 min, held 3 min, 100 µL/min
- Protocol conditions: column: Zorbax Extend-C18 2.1 x 50 mm; eluents: water / acetonitrile, 0.1% formic acid
Observable: RP-LC retention time (s)

Compound	Unit descriptor	RP-LC retention time
Cc1nc(-c2ccc(N3CCN(C(=O)c4cc(Cl)ccc4F)CC3)nc2)sc1C	s	990

[P] CC(C)CC(NC(=O)OCc1ccccc1)C(=O)NC(Cc1ccccc1)C(=O)CCl (centres undefined)
[Q] COc1ccc(-c2cn3cccnc3n2)cc1NC(=O)c1cc(OC)c(OC)c(OC)c1
Which entry shows the lesser value of RP-LC retention time here, P or Q ? Write the label of whichever entry you select.
Q
